target: Prostaglandin G/H synthase 1 (Homo sapiens, UniProt P23219); assay type: functional; note: assay procedure not described here
Sequence (P23219 whole entry): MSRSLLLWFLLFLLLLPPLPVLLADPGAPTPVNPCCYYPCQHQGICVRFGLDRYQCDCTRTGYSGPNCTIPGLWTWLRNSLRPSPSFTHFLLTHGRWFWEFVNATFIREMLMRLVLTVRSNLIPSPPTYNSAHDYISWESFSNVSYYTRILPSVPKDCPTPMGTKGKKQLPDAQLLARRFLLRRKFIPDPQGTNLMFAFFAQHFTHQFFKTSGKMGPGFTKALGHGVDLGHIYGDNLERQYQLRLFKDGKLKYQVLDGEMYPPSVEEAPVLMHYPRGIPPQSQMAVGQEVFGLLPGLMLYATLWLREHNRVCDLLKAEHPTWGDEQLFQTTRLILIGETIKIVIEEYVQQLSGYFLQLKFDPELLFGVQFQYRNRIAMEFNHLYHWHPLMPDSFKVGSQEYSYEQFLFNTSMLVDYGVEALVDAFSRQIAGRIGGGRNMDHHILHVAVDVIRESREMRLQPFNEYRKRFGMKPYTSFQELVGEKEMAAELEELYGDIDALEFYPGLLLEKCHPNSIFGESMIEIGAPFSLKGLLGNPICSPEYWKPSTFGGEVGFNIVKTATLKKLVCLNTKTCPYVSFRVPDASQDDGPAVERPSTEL
Reported AC50 values are given for each entry in this list.

Use these answered entries as a reference point.
# COMPOUND, READING
rows = [
    ("COCC1=C(C(=O)OC(C)OC(=O)OC(C)C)N2C(=O)[C@@H](NC(=O)/C(=N\\OC)c3csc(N)n3)[C@H]2SC1 (some centres undefined) [CEFPODOXIME PROXETIL]", "> 30 µM"),
    ("C#C[C@]1(O)CC[C@H]2[C@@H]3CCc4cc(O)ccc4[C@H]3CC[C@@]21C [ETHINYL ESTRADIOL]", "> 30 µM"),
    ("O=C1NCC2(CCN(CCc3ccccc3)CC2)O1 [FENSPIRIDE]", "> 30 µM"),
    ("CN1CCN(C(c2ccccc2)c2ccccc2)CC1 [CYCLIZINE]", "> 30 µM"),
]

In plain terms, CO[C@@]12[C@H](COC(N)=O)C3=C(C(=O)C(C)=C(N)C3=O)N1C[C@@H]1N[C@@H]12 [MITOMYCIN] has a documented AC50 of > 30 µM

In plain terms, COc1cc(NCc2ccc3nc(N)nc(N)c3c2C)cc(OC)c1OC [TRIMETREXATE] has a documented AC50 of 2.4 µM

====

Reported AC50 values are given for each entry in this list.
target: 5-hydroxytryptamine receptor 2A (Homo sapiens); format: functional, cell-based; note: assay procedure not described here
Sequence (P28223 whole entry): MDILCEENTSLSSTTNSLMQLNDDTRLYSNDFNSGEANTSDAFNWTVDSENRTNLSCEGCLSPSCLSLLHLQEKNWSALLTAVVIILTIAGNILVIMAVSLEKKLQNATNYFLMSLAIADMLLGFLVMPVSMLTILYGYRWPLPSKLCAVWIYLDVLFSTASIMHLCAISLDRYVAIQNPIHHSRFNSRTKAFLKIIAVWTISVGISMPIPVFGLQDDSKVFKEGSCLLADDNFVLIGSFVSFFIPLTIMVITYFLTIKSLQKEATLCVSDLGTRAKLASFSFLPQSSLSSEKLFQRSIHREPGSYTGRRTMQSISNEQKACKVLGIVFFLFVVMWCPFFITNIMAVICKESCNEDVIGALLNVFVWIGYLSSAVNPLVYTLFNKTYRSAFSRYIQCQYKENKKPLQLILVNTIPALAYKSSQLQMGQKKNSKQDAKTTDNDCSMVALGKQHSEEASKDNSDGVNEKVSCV

# COMPOUND_STRUCTURE, AC50
data = [
    ("CCCCCCCCCCCC[N+](C)(C)CCOc1ccccc1", "0.94 µM"),
    ("CCCCCN(C)CCC(O)(P(=O)(O)O)P(=O)(O)O", "> 30 µM"),
    ("CCCC(=O)N1CCCN(c2nc(N)c3cc(OC)c(OC)cc3n2)CC1", "> 30 µM"),
]

Attention now turns to another entry.
AC50 for 5-hydroxytryptamine receptor 2A (Homo sapiens) with input COC(=O)N[C@H](C(=O)N[C@@H](Cc1ccccc1)[C@@H](O)CN(Cc1ccc(-c2ccccn2)cc1)NC(=O)[C@@H](NC(=O)OC)C(C)(C)C)C(C)(C)C equals > 10 µM

====

Reported AC50 values are given for each entry in this list.
target: Mu-type opioid receptor (Homo sapiens); test: biochemical; type: functional; note: assay procedure not described here
Sequence (P35372 whole entry): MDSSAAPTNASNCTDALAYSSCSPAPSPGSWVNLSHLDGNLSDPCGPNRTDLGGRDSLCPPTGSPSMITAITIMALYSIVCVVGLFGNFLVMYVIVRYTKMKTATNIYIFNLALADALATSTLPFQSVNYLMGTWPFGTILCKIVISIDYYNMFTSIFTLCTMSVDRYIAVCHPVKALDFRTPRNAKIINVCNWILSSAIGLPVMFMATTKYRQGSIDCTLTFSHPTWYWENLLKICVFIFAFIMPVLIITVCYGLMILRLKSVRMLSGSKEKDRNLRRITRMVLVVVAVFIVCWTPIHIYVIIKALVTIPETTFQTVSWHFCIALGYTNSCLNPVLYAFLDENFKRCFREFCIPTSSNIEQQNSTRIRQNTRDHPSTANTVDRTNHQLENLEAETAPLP

# COMPOUND, AC50
rows = [
    ("CCCS(=O)(=O)Nc1ccc(F)c(C(=O)c2c[nH]c3ncc(-c4ccc(Cl)cc4)cc23)c1F", "> 30 µM"),
]

In plain terms, CC(C)(Oc1ccc(C2CC2(Cl)Cl)cc1)C(=O)O (centres undefined) [CIPROFIBRATE] has a documented AC50 of > 30 µM

In plain terms, Cc1c(Cl)cccc1Nc1ccccc1C(=O)O has a documented AC50 of > 30 µM

In plain terms, NS(=O)(=O)c1cc(-c2nnn[nH]2)c(NCc2cccs2)cc1Cl [AZOSEMIDE] has a documented AC50 of > 30 µM

In plain terms, NC[C@H]1CC[C@H](C(=O)O)CC1 has a documented AC50 of > 30 µM

In plain terms, CC(C)[N+](C)(CCC(C(N)=O)(c1ccccc1)c1ccccc1)C(C)C [ISOPROPAMIDE] has a documented AC50 of > 30 µM

====

biological target: D(3) dopamine receptor (Homo sapiens); note: assay procedure not described here
Sequence (P35462 whole entry): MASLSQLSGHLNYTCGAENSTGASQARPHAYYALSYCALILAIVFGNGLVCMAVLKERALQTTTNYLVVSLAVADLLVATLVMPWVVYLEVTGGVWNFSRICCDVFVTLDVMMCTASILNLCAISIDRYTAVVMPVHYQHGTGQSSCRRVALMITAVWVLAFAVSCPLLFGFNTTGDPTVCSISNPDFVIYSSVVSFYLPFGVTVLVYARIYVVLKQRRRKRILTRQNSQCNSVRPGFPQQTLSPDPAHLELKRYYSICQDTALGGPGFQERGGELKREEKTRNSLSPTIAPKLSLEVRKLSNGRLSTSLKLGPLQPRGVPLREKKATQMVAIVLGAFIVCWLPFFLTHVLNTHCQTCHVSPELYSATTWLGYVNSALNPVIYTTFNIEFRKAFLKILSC
Reported AC50 values are given for each entry in this list.

Use these answered entries as a reference point.
# COMPOUND, READING
measured = [
    ("CC(C)c1c(C(=O)Nc2ccccc2)c(-c2ccccc2)c(-c2ccc(F)cc2)n1CC[C@@H](O)C[C@@H](O)CC(=O)O [ATORVASTATIN]", "> 30 µM"),
    ("CN1C(=O)CC(C)(c2ccccc2)C1=O (stereo not given) [METHSUXIMIDE]", "> 30 µM"),
    ("CN(C)CCCN1c2ccccc2CCc2ccc(Cl)cc21 [CLOMIPRAMINE]", "0.3 µM"),
    ("CCCCCCCCOc1ccccc1C(=O)Nc1ccc(C(=O)OCC[N+](C)(CC)CC)cc1 [OTILONIUM BROMIDE]", "2 µM"),
    ("NC[C@H]1O[C@H](O[C@H]2[C@H](O)[C@@H](O[C@H]3O[C@H](CO)[C@@H](O)[C@H](N)[C@H]3O)[C@H](N)C[C@@H]2N)[C@H](O)[C@@H](O)[C@@H]1O [KANAMYCIN]", "> 30 µM"),
    ("COCC1=C(C(=O)OC(C)OC(=O)OC(C)C)N2C(=O)[C@@H](NC(=O)/C(=N\\OC)c3csc(N)n3)[C@H]2SC1 (stereo not given in full) [CEFPODOXIME PROXETIL]", "> 30 µM"),
]

AC50 for D(3) dopamine receptor (Homo sapiens) with input CN1CCN(C(=O)OC2c3nccnc3C(=O)N2c2ccc(Cl)cn2)CC1 (stereo not given) [ZOPICLONE] equals > 10 µM

AC50 for D(3) dopamine receptor (Homo sapiens) with input COc1ccc(C(=O)N2CCN(c3ccc4c(c3)CCC(=O)N4)CC2)cc1OC [VESNARINONE] equals > 30 µM

AC50 for D(3) dopamine receptor (Homo sapiens) with input CCCCOc1cc(C(=O)NCCN(CC)CC)c2ccccc2n1 [DIBUCAINE] equals > 30 µM

AC50 for D(3) dopamine receptor (Homo sapiens) with input Cc1c(O)c(=O)ccn1C [DEFERIPRONE] equals > 30 µM

AC50 for D(3) dopamine receptor (Homo sapiens) with input Nc1nc(N)c2nc(-c3ccccc3)c(N)nc2n1 equals > 30 µM

AC50 for D(3) dopamine receptor (Homo sapiens) with input C#CC1(OC(N)=O)CCCCC1 [ETHINAMATE] equals > 30 µM
